Measured values drawn from the Immune Epitope Database (IEDB) for this set.

targetDesc: HLA-A*02:06
testName: IEDB peptide-MHC binding, purified MHC/competitive/radioactivity; filed as Kd, often an IC50 or EC50 that approximates it; bounds were set here for any values at or beyond the usual limits of such assays
statedConditions: source organism: Plasmodium falciparum 3D7
Please provide measured Kd for the entries that follow.
Give bare numbers, in nM.

Answered cases to consult:
INSERT INTO measurements (macromoleculesequence, resultnumber) VALUES
  ('RLFEESLGI', 68),
  ('RLPVICSFLV', 19),
  ('ATYGIIVPV', 5),
  ('NQMIFVSSI', 14),
  ('FMNRFYITT', 996),
  ('NILIVLYYL', 1090),
  ('YQDPQNYEL', 52),
  ('VLFLQMMNV', 9.5),
  ('LLNESNIFL', 143),
  ('FLVFLVFSNV', 232);

Now look at this entry.
Lookup: Report Kd, nothing else, for this sequence: "VICSFLVFLV"
Found: 197

---

targetDesc: HLA-A*29:02
testName: IEDB peptide-MHC binding, purified MHC/competitive/radioactivity; filed as Kd, often an IC50 or EC50 that approximates it; bounds were set here for any values at or beyond the usual limits of such assays
statedConditions: source organism: Plasmodium falciparum 3D7
pKd: −log10 of the molar value.
Values of pKd greater than or equal to 6 map to Fulfilled; values below map to Not fulfilled.

Below are worked cases with known answers.
INSERT INTO measurements (macromoleculesequence, group) VALUES
  ('FQAAESNERY', 'Not fulfilled'),
  ('ELEASISGKY', 'Not fulfilled'),
  ('QAAESNERY', 'Not fulfilled'),
  ('IYYFDGNSW', 'Not fulfilled');

Lookup: Item "VYYNILIVL" with pKd of 6 or above?
Found: Not fulfilled

Lookup: State whether the measured pKd reaches 6, counting equality as reaching it, for "LEASISGKY"
Found: Not fulfilled

Lookup: Check if pKd >= 6 (inclusive). Item: "QEEQKKYIY"
Found: Not fulfilled

Lookup: Does pKd meet or surpass 6 for "SYKSSKRDKF" ?
Found: Not fulfilled

Lookup: # bool: pKd of "DFFLKSKFNI" >= 6
Found: Not fulfilled

---

Can you tell me Kd for the items I'm about to list?
targetDesc: HLA-A*02:03
testName: IEDB peptide-MHC binding, purified MHC/competitive/radioactivity; filed as Kd, often an IC50 or EC50 that approximates it; bounds were set here for any values at or beyond the usual limits of such assays
statedConditions: source organism: Plasmodium falciparum 3D7
Give bare numbers, in nM.

Example entries and their recorded answers appear below.
INSERT INTO measurements (macromoleculesequence, targetdesc, resultnumber) VALUES
  ('YQDPQNYEL', 'HLA-A*02:03', 441),
  ('VICSFLVFLV', 'HLA-A*02:03', 2920),
  ('NQMIFVSSI', 'HLA-A*02:03', 3.6),
  ('RLFEESLGI', 'HLA-A*02:03', 5.5),
  ('ATYGIIVPV', 'HLA-A*02:03', 2.8);

Report Kd for every entry below.
1. NILIVLYYL
2. LLNESNIFL

Found:
[8780, 24]

Each sequence below has a reported value. Please supply its Kd.
1. RLPVICSFLV
2. VLFLQMMNV

Found:
[33, 2.7]

---

targetDesc: HLA-A*68:01
testName: IEDB peptide-MHC binding, purified MHC/competitive/radioactivity; filed as Kd, often an IC50 or EC50 that approximates it; bounds were set here for any values at or beyond the usual limits of such assays
statedConditions: source organism: Plasmodium falciparum 3D7
Would you kindly list pKd for each of these sequences?
Answers are plain numbers, as −log10 of the molar value.

INSERT INTO assay_data (macromoleculesequence, resultnumber) VALUES
  ('LTNHLINTPK', 8.00),
  ('YLFNQHIKK', 7.85),
  ('ILCIEGEQK', 6.28),
  ('GTMYILLKK', 8.51),
  ('FSYDLRLNK', 7.82),
  ('IIALLIIPPK', 7.09),
  ('ELFDKDTFFK', 8.44);

Pending sequence:
Lookup: Return value of pKd for input "HLNIPIGFK" , no commentary.
Found: 8.55

---

targetDesc: HLA-A*68:01
testName: IEDB peptide-MHC binding, purified MHC/competitive/radioactivity; filed as Kd, often an IC50 or EC50 that approximates it; bounds were set here for any values at or beyond the usual limits of such assays
statedConditions: source organism: Plasmodium falciparum 3D7
parameter: log10(Kd) (log10 of the value in nM)
Hello, just confirming the data are log10 of Kd with units of nM.

INSERT INTO assay_data (macromoleculesequence, resultnumber) VALUES
  ('VVCSMEYKK', 2.22),
  ('KINSNFLLK', 3.44);

For each of the sequences below, state log10(Kd).
1. IFISFYLINK
2. PVVCSMEYK
3. EQRLPLLPK
4. NIFLRFIPDK
5. RLPLLPKTWK
6. TTRYKYLNK
7. IALLIIPPK
8. SISGKYDIK

Found:
1: 2.56; 2: 2.62; 3: 3.28; 4: 3.18; 5: 3.46; 6: 3.41; 7: 3.29; 8: 3.24

Provide log10(Kd) for all items below, preserving their order.
1. YLINKHWQR
2. SSPLFNNFYK
3. AVSEIQNNK
4. MQSSFFMNR

Found:
[0.57, 0.80, 1.15, 0.58]

---

targetDesc: HLA-A*24:02
testName: IEDB peptide-MHC binding, purified MHC/competitive/radioactivity; filed as Kd, often an IC50 or EC50 that approximates it; bounds were set here for any values at or beyond the usual limits of such assays
statedConditions: source organism: Plasmodium falciparum 3D7
Threshold-based label: Kd under 2000 nM gives label 1, Kd not under 2000 nM gives label 0.

INSERT INTO assay_data (macromoleculesequence, group) VALUES
  ('SFFMNRFYI', 'label 1'),
  ('SYKSSKRDKF', 'label 1'),
  ('NFINFIKVL', 'label 0'),
  ('KYEALIKLL', 'label 0'),
  ('VYRHCEYIL', 'label 0'),
  ('MFVPKYFEL', 'label 1');

Lookup: Check if Kd falls below 2000 nM for "TYKKKNNHI" .
Found: label 1

Lookup: Problem: For the sequence "DFFLKSKFNI" , is Kd under 2000 nM?
Found: label 1

Lookup: Could you please tell me whether Kd recorded for "TYGIIVPVL" is less than 2000 nM?
Found: label 1

Lookup: Quick check: does "VYYNILIVL" have Kd under 2000 nM?
Found: label 1

Lookup: Determine whether this sequence shows Kd lower than 2000 nM (ties excluded): "RMTSLKNEL"
Found: label 0

Lookup: Just wondering, is Kd of "KFNILSSPL" below 2000 nM?
Found: label 1

Lookup: Would you kindly verify if Kd of "LYYLFNQHI" is strictly less than 2000 nM?
Found: label 1

---

targetDesc: HLA-A*23:01
testName: IEDB peptide-MHC binding, purified MHC/competitive/radioactivity; filed as Kd, often an IC50 or EC50 that approximates it; bounds were set here for any values at or beyond the usual limits of such assays
statedConditions: source organism: Plasmodium falciparum 3D7
pKd: −log10 of the molar value.
Label 1 when pKd is at or above 7; otherwise label 0.

INSERT INTO measurements (macromoleculesequence, targetdesc, group) VALUES
  ('KFNILSSPL', 'HLA-A*23:01', 0),
  ('SFFMNRFYI', 'HLA-A*23:01', 1);

Next, consider the following sequence.
Lookup: pKd >= 7 for "VYYNILIVL" ?
Found: 1

---

targetDesc: HLA-A*29:02
testName: IEDB peptide-MHC binding, purified MHC/competitive/radioactivity; filed as Kd, often an IC50 or EC50 that approximates it; bounds were set here for any values at or beyond the usual limits of such assays
statedConditions: source organism: Plasmodium falciparum 3D7
parameter: Kd

INSERT INTO results (macromoleculesequence, parameter, result) VALUES
  ('KFNILSSPL', 'Kd', '≥ 10 µM');

Could I get Kd for every one of these entries?
1. VYRHCEYIL
2. TYKKKNNHI
3. LIENELMNY
4. MFVPKYFEL
5. NHEQKLSEY
6. LYYLFNQHI

Found:
1: ≥ 10 µM; 2: ≥ 10 µM; 3: 3.94 µM; 4: 2.56 µM; 5: ≥ 10 µM; 6: ≥ 10 µM

---

targetDesc: HLA-A*26:01
testName: IEDB peptide-MHC binding, purified MHC/competitive/radioactivity; filed as Kd, often an IC50 or EC50 that approximates it; bounds were set here for any values at or beyond the usual limits of such assays
statedConditions: source organism: Plasmodium falciparum 3D7
parameter: Kd (nM)
Numbers only, in nM.

INSERT INTO assay_data (macromoleculesequence, parameter, resultnumber) VALUES
  ('FVSSIFISFY', 'Kd', 11),
  ('QAAESNERY', 'Kd', 142),
  ('ELEASISGKY', 'Kd', 23),
  ('SSFFMNRFY', 'Kd', 166),
  ('VSSIFISFY', 'Kd', 1640);

For each of the sequences below, note its Kd.
1. LNEQLIYTY
2. LIENELMNY
3. SSPLFNNFY
4. QNADKNFLY

Found:
6210
228
17
166

Okay, here is my list. What is Kd for each of these?
1. FQAAESNERY
2. LEASISGKY

Found:
[3510, 3950]
